tested on: pERK in NCI-H1435 cells (NF-1 mutant); assay: pERK inhibition in NF-1 mutant NCI-H1435 cells (Example F); assay type: cell-based; settings: NCI-H1435, 1 h, read-out: IC50, pERK inhibition
Listed next: entries and their corresponding IC50.
Give the quantity in nM, number only.

- smilesStr: "Cc1c([C@@H](C)Nc2nnc(C)c3ccc(N4CCN(C(=O)C5CCOCC5)CC4)cc23)cccc1C(F)(F)F"
  IC50 / nM: 17
- smilesStr: "CNCc1c(F)cccc1-c1ccc([C@@H](C)Nc2nnc(C)c3ccc(N4CCOCC4)cc23)s1"
  IC50 / nM: 29
- smilesStr: "Cc1c([C@@H](C)Nc2nnc(C)c3cnc(N4CCOCC4)cc23)cccc1C(F)(F)F"
  IC50 / nM: 63

Request the reported IC50 associated with Cc1c([C@@H](C)Nc2nnc(C)c3ccc(N4CCN(C(=O)[C@@H]5CCOC5)CC4)cc23)cccc1C(F)(F)F
19

###

test system: pERK in MKN1 cells; assay: cells; format: cell-based; conditions: Homo sapiens, MKN-1
Counter-ions that a name gives are not always drawn.
valueKind: IC50 (µM)
Give the quantity in µM, number only.

Which measured IC50 belongs to Cc1c([C@@H](C)Nc2nnc(C)c3ccc(OC[C@H]4CCCN4C)cc23)cccc1C(F)(F)F [Example 10-25, hydrochloride salt] , tested on pERK in MKN1 cells?
0.103

Follow-up item: Cc1c(C#N)cccc1[C@@H](C)Nc1nnc(C)c2ccc(N3CCC(N(C)C)CC3)cc12 [Example 10-57, Formate salt]
0.046

Follow-up item: Cc1c([C@@H](C)Nc2nnc(C)c3ccc(OC[C@H]4CCCN4)cc23)cccc1C(F)(F)F [Example 7-7, hydrochloride salt]
0.115

Follow-up item: Cc1c([C@@H](C)Nc2nnc(C)c3ccc(OC[C@@H]4CCCN4C)cc23)cccc1C(F)(F)F [Example 10-24, hydrochloride salt]
0.069

Follow-up item: Cc1c(C#N)cccc1[C@@H](C)Nc1nnc(C)c2ccc(N3CCN4CCCC[C@@H]4C3)cc12 [Example 10-82, Hydrochloride salt]
0.052

###

molecular target: recombinant human SOS1 polypeptide (amino acids 560-1049) (Homo sapiens (Human), UniProt Q07889); assay: biochemical; type: binding; details: HTRF displacement, Cy5 labelled tracer, Morrison equation for competitive binding; read-out: Ki, Inhibition of Labeled Tracer Binding to SOS1
Sequence (Q07889 560-1049): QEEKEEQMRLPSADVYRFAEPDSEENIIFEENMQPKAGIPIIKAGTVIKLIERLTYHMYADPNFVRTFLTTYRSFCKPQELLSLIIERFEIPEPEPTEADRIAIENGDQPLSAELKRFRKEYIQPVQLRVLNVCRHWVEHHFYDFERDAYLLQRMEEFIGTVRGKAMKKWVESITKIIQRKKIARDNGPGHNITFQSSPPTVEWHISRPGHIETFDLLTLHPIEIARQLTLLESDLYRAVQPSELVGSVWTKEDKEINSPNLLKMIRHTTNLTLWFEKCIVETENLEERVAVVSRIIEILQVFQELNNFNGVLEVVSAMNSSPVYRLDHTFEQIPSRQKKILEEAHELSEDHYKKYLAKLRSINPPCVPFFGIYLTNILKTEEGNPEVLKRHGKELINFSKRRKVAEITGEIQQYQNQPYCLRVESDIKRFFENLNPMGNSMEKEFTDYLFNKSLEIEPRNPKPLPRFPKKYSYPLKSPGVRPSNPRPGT
valueKind: pKi
Friendly reminder that pKi comes from taking -log10 of the concentration in mol/L.

Answered cases to consult:
- molecule: "Cc1c([C@@H](C)Nc2nnc(C)c3cnc(N4CC(C)(O)C4)cc23)cccc1C(F)(F)F [Example 12-21]"
  recordedValue: 8.88
- molecule: "Cc1c([C@@H](C)Nc2nnc(C)c3cnc(N4C5CCC4COC5)cc23)cccc1C(F)(F)F [Example 12-31]"
  recordedValue: 8.99
- molecule: "Cc1c([C@@H](C)Nc2nnc(C)c3ccc(N4CC(C)(O)C4)cc23)cccc1C(F)(F)F [Example 10-47]"
  recordedValue: 8.92
- molecule: "Cc1c([C@@H](C)Nc2nncc3ccc(N4CCn5cncc5C4)cc23)cccc1C(F)(F)F [Example 1-48]"
  recordedValue: 9.25
- molecule: "CNCc1ccccc1-c1ccc([C@@H](C)Nc2nnc(C)c3ccc(C)cc23)s1 [Example 8-1]"
  recordedValue: 8.86

Request the reported pKi associated with Cc1c(C#N)cccc1[C@@H](C)Nc1nnc(C)c2ccc(N3CCN(c4cnn(C)c4)CC3)cc12 [Example 10-70]
9.05

Follow-up item: Cc1c([C@@H](C)Nc2nnc(C)c3ccc(N4CCC5(CCNC5=O)CC4)cc23)cccc1C(F)(F)F [Example 10-38]
9.15

Follow-up item: Cc1nnc(N[C@H](C)c2cccc(C(F)(F)C(C)(C)O)c2F)c2cc(N3CC4CC(C3)O4)ncc12 [Example 20-3]
9.04

Follow-up item: Cc1c(C#N)cccc1[C@@H](C)Nc1nnc(C)c2cc(F)c(N3CCNCC3)cc12 [Example 18-4]
8.79

Follow-up item: Cc1nnc(N[C@H](C)c2cccc(C(F)(F)F)c2F)c2cc(N3CCN4CCOC[C@@H]4C3)ncc12 [Example 12-63]
9.08

Cited source for all entries: patent US11702418B2
